Where do the numbers come from? From patent US8507488B2.

Test System: Tel-TrkA (Homo sapiens, UniProt P04629)
Construct: dimerization domain of Tel (ETV6) transcription factor (fusion partner, human ETV6 P41212); expressed in transfected cells; host or cells: luciferase expressing Ba/F3 murine hematopoietic progenitor cells; the other entry of the earlier key: ETV6 (P41212, Transcription factor ETV6)
Sequence (P04629 510-796 limits assumed): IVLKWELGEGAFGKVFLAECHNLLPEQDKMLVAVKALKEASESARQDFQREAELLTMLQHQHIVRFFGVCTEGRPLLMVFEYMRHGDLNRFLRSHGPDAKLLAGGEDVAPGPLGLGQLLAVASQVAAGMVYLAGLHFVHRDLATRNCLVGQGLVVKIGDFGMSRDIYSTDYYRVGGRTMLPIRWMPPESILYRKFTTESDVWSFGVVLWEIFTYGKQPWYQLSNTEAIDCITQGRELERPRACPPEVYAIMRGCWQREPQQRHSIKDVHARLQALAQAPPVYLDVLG
Run Description: Inhibition of proliferation of Ba/F3 cells expressing Tel-TrkA (BaF3/Tel-TrkA, luciferase/Bright Glo readout)
Type: cell-based
Details: read-out: Ba/F3 Tel-TrkA IC 50
pIC50: −log10 of the molar value.
Property Label: pIC50

>>> numeric_value("OC1CCN(c2cncc(-c3cnc4ccc(N5CCCC5c5cccc(F)c5)nn34)n2)CC1 (stereo not drawn)")
8.48
>>> numeric_value("OCCC1CCN(c2cccc(-c3cnc4ccc(N5CCOCC5c5cccc(F)c5)nn34)n2)CC1 (stereo not drawn)")
8.00
>>> numeric_value("Cc1cnc(-c2cccc(-c3cnc4ccc(N5CCCC5c5cccc(F)c5)nn34)n2)[nH]1 (stereo not drawn)")
8.16
>>> numeric_value("Fc1cccc([C@H]2CCCN2c2ccc3ncc(-c4cccc(N5CCN(c6cccnc6)CC5)n4)n3n2)c1")
8.05

A: OC1CCN(c2nccc(-c3cccc(-c4cnc5ccc(N6CCCC6c6cccc(F)c6)nn45)n3)n2)CC1 (stereo not drawn)
B: N#Cc1cccc(-c2cnc3ccc(N4CCC(=O)N4c4cccc(F)c4)nn23)c1
Prompt line: Exercise: compare A and B ; which one has the greater pIC50? Refer to your chosen entry by its label in the reply.
Response line: A

a: CC1(c2cccc(F)c2)CCCN1c1ccc2ncc(-c3ccc(C#N)cc3)n2n1 (stereo not drawn)
b: Fc1cccc(C2CCCN2c2ccc3ncc(-c4cccc(OCCN5CCOCC5)n4)n3n2)c1 (stereo not drawn)
Prompt line: // compare measured pIC50 between a and b ; output the lower one Refer to your chosen entry by its label in the reply.
Response line: a

====

Test System: full length rTrkA and mNGF (Rattus norvegicus)
Construct: co-expressing full length rTrkA and mNGF; expressed in transfected cells; host or cells: Ba/F3 cells
Sequence (P35739 33-799): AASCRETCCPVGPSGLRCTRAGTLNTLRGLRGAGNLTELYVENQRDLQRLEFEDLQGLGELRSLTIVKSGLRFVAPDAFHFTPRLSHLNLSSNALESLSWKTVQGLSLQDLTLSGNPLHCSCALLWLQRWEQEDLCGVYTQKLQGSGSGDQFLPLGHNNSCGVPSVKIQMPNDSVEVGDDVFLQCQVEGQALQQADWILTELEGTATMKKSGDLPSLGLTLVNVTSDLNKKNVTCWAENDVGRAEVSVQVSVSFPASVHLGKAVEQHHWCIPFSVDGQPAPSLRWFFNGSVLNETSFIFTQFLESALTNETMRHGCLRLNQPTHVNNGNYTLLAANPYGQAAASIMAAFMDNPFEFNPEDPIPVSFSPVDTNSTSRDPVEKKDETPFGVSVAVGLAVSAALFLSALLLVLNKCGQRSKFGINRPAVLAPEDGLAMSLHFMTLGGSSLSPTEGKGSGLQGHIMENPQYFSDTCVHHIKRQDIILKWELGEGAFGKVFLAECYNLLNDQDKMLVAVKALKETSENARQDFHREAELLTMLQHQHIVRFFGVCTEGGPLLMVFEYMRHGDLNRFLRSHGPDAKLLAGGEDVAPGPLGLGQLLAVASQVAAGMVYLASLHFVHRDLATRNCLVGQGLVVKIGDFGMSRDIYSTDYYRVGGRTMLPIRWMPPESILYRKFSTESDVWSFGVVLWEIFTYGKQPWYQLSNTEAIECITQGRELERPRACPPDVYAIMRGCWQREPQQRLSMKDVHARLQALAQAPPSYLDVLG
Sequence (P01139 122-241 partner): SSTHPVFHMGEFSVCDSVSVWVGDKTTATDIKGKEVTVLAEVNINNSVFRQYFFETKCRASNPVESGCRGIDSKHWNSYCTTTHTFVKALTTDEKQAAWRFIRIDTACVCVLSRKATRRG
Run Description: Inhibition of proliferation of Ba/F3 cells co-expressing full length rTrkA and mNGF (BaF3/TrkA-NFG)
Type: cell-based
Details: BaF3 TRKA-NGF cells, CTG readout
Property Label: BaF3 TRKA-NGF CTG IC 50 (nM)

Example compounds with recorded BaF3 TRKA-NGF CTG IC 50:
>>> numeric_value("CC(C)(C)OC(=O)N1CCC(Oc2ncc(-c3cnc4ccc(N5CCCC5c5cccc(F)c5)nn34)cn2)CC1 (stereo not shown) [Table 7-Compound 176]")
886
>>> numeric_value("N#Cc1cc(-c2cnc3ccc(N4CCOCC4c4cccc(F)c4)nn23)ccc1F (stereo not shown) [Table 2-Compound 6]")
78
>>> numeric_value("N#Cc1cc(-c2cnc3ccc(N4CCCC4c4cc(F)ccc4F)nn23)ccc1N1CCOCC1 (stereo not shown) [Table 5-Compound 2]")
49
>>> numeric_value("Fc1cccc([C@H]2CCCN2c2ccc3ncc(-c4cccc(N5CCN(c6cccnc6)CC5)n4)n3n2)c1 [Table 7-Compound 255]")
9
>>> numeric_value("C[C@H]1CN(c2ccc3ncc(-c4cccc(C#N)c4)n3n2)[C@H](c2ccccc2)C1(F)F [Table 3-Compound 52]")
22
>>> numeric_value("CN1CCN(c2cnc(-c3cnc4ccc(N5CCCC5c5cccc(F)c5)nn34)cn2)CC1 (stereo not shown) [Table 3-Compound 7]")
27

a: CC(C)NC(=O)CN1CCN(c2cccc(-c3cnc4ccc(N5CCCC5c5cccc(F)c5)nn34)n2)CC1 (stereo not shown) [Table 4-Compound 32]
b: Fc1cccc(C2COCCN2c2ccc3ncc(-c4cccc(N5CCOCC5)n4)n3n2)c1 (stereo not shown) [Table 2-Compound 10]
c: CCOC(=O)C1CCN(c2cccc(-c3cnc4ccc(N5CCOCC5c5cccc(F)c5)nn34)n2)CC1 (stereo not shown) [Table 7-Compound 17]
d: OCc1cccc(-c2cnc3ccc(N4CCCC4c4cccc(F)c4)nn23)n1 (stereo not shown) [Table 7-Compound 2]
e: O=C(NCCO)c1ccc(-c2cnc3ccc(N4CCCC4c4cccc(F)c4)nn23)cn1 (stereo not shown) [Table 3-Compound 19]
Prompt line: Could you please order the items by BaF3 TRKA-NGF CTG IC 50, going from the lowest number to the highest? // list labels; follow requested order
Response line: a, b, d, c, e

====

Test System: full length rTrkA and mNGF (Rattus norvegicus)
Construct: co-expressing full length rTrkA and mNGF; expressed in transfected cells; host or cells: Ba/F3 cells
Run Description: Inhibition of proliferation of Ba/F3 cells co-expressing full length rTrkA and mNGF (BaF3/TrkA-NFG)
Type: cell-based
Details: BaF3 TRKA-NGF cells, CTG readout
Property Label: BaF3 TRKA-NGF CTG IC 50 (nM)

Example compounds with recorded BaF3 TRKA-NGF CTG IC 50:
>>> numeric_value("Fc1cccc(C2CCCN2c2ccc3ncc(-c4cccc(-c5cnco5)n4)n3n2)c1 (centres unmarked) [Table 7-Compound 20]")
3.6
>>> numeric_value("CN(C)c1ccc(-c2cnc3ccc(N4CCCC4c4cc(F)ccc4F)nn23)cc1C#N (centres unmarked) [Table 5-Compound 4]")
203
>>> numeric_value("N#Cc1cc(-c2cnc3ccc(N4CCCC4c4cc(F)ccc4F)nn23)ccc1F (centres unmarked) [Table 5-Compound 1]")
43

I: Fc1cccc(C2CCCN2c2ccc3ncc(-c4cccc(-c5ccnc(N6CC7(COC7)C6)n5)n4)n3n2)c1 (centres unmarked) [Table 7-Compound 136]
II: N#Cc1cccc(-c2cnc3ccc(N4CCCC4c4ccccc4)nn23)c1 (centres unmarked) [Table 3-Compound 54]
Prompt line: Exercise: compare I and II ; which one has the greater BaF3 TRKA-NGF CTG IC 50? Refer to your chosen entry by its label in the reply.
Response line: II
(II: 111 nM, I: 39 nM)
